Taken from patent US20110166149A1.

- methodSummary: Inhalation exposure: Compound A concentration in lung, plasma and BALF (Example 2)
- Type: in vivo, BALB/c mice
- settings: male, BALB/c, mouse, lung, inhaled; mice, 30 min inhalation, nominal aerosol 0.07 mg/L, 0.083 h; read-out: Compound A concentration Lung
readoutType: concentration at 0.083 h (ng/g)
Give a bare numeral; the unit ng/g is implied.

Using the record for `Nc1nc(N)c2nc(-c3cccc(O)c3)c(-c3cccc(O)c3)nc2n1` , report its concentration at 0.083 h.
20600

----------
- methodSummary: Inhalation exposure: Compound A concentration in lung, plasma and BALF (Example 2)
- Type: in vivo, BALB/c mice
- settings: male, BALB/c, inhaled or intranasal, 0.15 mg/kg; mouse BALF, aerosol conc. 0.02 mg/L
readoutType: AUC(0-inf) (ng·h/mL)
Give a bare numeral; the unit ng·h/mL is implied.

Using the record for `Nc1nc(N)c2nc(-c3cccc(O)c3)c(-c3cccc(O)c3)nc2n1` , report its AUC(0-inf).
21700
